target: system Xc^− (Homo sapiens, UniProt Q9UPY5); test: [^14C]L-Cystine uptake assay; type: cell-based; set-up: endogenous in cells; host or cells: H4 cells; conditions: H4 cells, sodium-free HEPES buffer, 0.5 μM L-[14C]Cystine and 4.5 μM L-Cystine, 1 hour at 37° C.; read-out: pIC50 [^14C] L-Cystine uptake assay (converted)
metric: IC50

Take a look at these entries with their results.
> print(dat)
                                   compound                            assayed.system  metric      test.result
1  Cc1cc2c(c(F)n1)-c1ncc(F)cc1CC(=O)N2CC(=O)Nc1ccc(Cl)c(F)c1 [#417]  system Xc^− (Homo sapiens, UniProt Q9UPY5)    IC50  15.8 to 39.8 nM
2  COc1nc(C)cc2c1-c1cccnc1C(C)C(=O)N2CC(=O)Nc1ccc(C(F)(F)F)cc1 (stereo not drawn) [#81]  system Xc^− (Homo sapiens, UniProt Q9UPY5)    IC50        < 15.8 nM
3  CC1C(=O)N(CC(=O)Nc2ccc(C(F)F)cc2)c2cc(C3CC3)c(=O)n(C)c2-c2ccccc21 (stereo not drawn) [#322]  system Xc^− (Homo sapiens, UniProt Q9UPY5)    IC50   39.8 to 100 nM
4  Cc1cc2c(cc1C)N(CC(=O)Nc1ccc(Cl)c(F)c1)C(=O)Cc1ccncc1-2 [#2]  system Xc^− (Homo sapiens, UniProt Q9UPY5)    IC50  15.8 to 39.8 nM
5  Cc1cc2c(cn1)-c1ncccc1C(C)C(=O)N2CC(=O)Nc1ccc(Cl)c(F)c1 (single isomer, unassigned) [#407]  system Xc^− (Homo sapiens, UniProt Q9UPY5)    IC50   39.8 to 100 nM

(Q) Quick check: IC50 of Cc1cc2c(c(Cl)n1)-c1ccnn1CC(=O)N2CC(=O)Nc1ccc(C(F)(F)F)cc1 [#100] ?
(A) 39.8 to 100 nM

###

target: system Xc^− (Homo sapiens, UniProt Q9UPY5); experiment: [^14C]L-Cystine uptake assay; assay type: cell-based; set-up: endogenous in cells; host or cells: H4 cells; details: H4 cells, sodium-free HEPES buffer, 0.5 μM L-[14C]Cystine and 4.5 μM L-Cystine, 1 hour at 37° C.; read-out: pIC50 [^14C] L-Cystine uptake assay (converted)
Listing: IC50 of selected molecules

Check out these entries, answers already filled in.
> print(dat)
                                   molecule  metric      test.result
1  COc1nc2c(cc1C)N(CC(=O)Nc1ccc(C(F)(F)F)cc1)C(=O)C(C)c1ncccc1-2 (stereo not drawn)    IC50  15.8 to 39.8 nM
2  COC1C(=O)N(CC(=O)Nc2ccc(C(F)(F)F)cc2)c2cc(C)nc(Cl)c2-c2ccccc21 (stereo not drawn)    IC50        < 15.8 nM
3  Cc1cc2c(c(OCCO)n1)-c1cccnc1[C@@H](C)C(=O)N2CC(=O)Nc1ccc(C(F)F)cc1    IC50        < 15.8 nM
4  CC1C(=O)N(CC(=O)Nc2ccc(Cl)c(F)c2)c2cc(C3(F)CC3)ncc2-c2cc(F)cnc21 (single isomer, unassigned)    IC50        < 15.8 nM
5  Cc1cc2c(c(C)n1)-c1cccnc1CC(=O)N2CC(=O)Nc1ccc(C2CC2)cc1    IC50    100 to 501 nM
6  Cc1cc2c(c(F)n1)-c1cc(F)cnc1C(C)C(=O)N2CC(=O)Nc1ccc(C(F)F)cc1 (single isomer, unassigned)    IC50        < 15.8 nM

(Q) Return reported IC50; argument: Cc1cc2c(c(O)n1)-c1cccnc1CC(=O)N2CC(=O)Nc1ccc(C(F)(F)F)cc1
(A) 100 to 501 nM

(Q) What about Cc1cc2c(cn1)-c1cncnc1C(C)C(=O)N2CC(=O)Nc1ccc(Cl)c(F)c1 (single isomer, unassigned) ?
(A) 15.8 to 39.8 nM

(Q) Next: Cc1cc2c(c(F)n1)-c1ccnn1C(C)C(=O)N2CC(=O)Nc1ccc(C(F)F)cc1 (single isomer, unassigned)
(A) 100 to 501 nM

(Q) Another molecule to check: CC1C(=O)N(CC(=O)Nc2ccc(C(F)F)cc2)c2cc(C#N)ccc2-c2cc(F)cnc21 (single isomer, unassigned)
(A) 15.8 to 39.8 nM

(Q) What do we get for N#Cc1ccc2c(c1F)-c1cccnc1CC(=O)N2CC(=O)Nc1ccc(C(F)(F)F)cc1 ?
(A) 39.8 to 100 nM

(Q) Okay, and Cc1cc2c(c(F)n1)-c1cccnc1[C@@H](C)C(=O)N2CC(=O)Nc1ccc(C(F)(F)F)c(C)c1 ?
(A) 15.8 to 39.8 nM

(Q) Now the molecule Cc1cc2c(c(Cl)n1)-c1cccnc1CC(=O)N2CC(=O)Nc1ccc(C(F)(F)F)cc1
(A) < 15.8 nM

(Q) # iterate: Cc1cc2c(c(F)n1)-c1cccnc1[C@@H](C)C(=O)N2CC(=O)Nc1ccc(C(F)F)c(F)c1 (single isomer, unassigned)
(A) < 15.8 nM

(Q) # repeat for CC1C(=O)N(CC(=O)Nc2ccc(C(F)F)cc2)c2cc(C3(F)CC3)ncc2-c2cc(F)cnc21 (single isomer, unassigned)
(A) < 15.8 nM

###

Target: system Xc^− (Homo sapiens)
Sequence (Q9UPY5 1-501): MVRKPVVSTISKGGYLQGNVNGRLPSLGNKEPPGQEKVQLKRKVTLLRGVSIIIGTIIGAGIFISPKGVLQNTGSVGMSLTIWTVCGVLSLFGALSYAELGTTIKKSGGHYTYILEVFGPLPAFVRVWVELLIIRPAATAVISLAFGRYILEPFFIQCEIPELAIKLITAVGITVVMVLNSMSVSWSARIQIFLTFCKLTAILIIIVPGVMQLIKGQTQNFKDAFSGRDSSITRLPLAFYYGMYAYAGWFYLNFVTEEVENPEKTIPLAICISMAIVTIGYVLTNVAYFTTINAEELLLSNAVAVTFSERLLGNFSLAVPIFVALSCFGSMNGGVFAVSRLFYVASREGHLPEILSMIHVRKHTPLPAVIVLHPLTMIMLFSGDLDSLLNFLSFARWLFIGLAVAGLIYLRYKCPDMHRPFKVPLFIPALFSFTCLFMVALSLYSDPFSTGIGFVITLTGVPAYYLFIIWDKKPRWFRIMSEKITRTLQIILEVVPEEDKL
Sequence (P08195 1-529 partner): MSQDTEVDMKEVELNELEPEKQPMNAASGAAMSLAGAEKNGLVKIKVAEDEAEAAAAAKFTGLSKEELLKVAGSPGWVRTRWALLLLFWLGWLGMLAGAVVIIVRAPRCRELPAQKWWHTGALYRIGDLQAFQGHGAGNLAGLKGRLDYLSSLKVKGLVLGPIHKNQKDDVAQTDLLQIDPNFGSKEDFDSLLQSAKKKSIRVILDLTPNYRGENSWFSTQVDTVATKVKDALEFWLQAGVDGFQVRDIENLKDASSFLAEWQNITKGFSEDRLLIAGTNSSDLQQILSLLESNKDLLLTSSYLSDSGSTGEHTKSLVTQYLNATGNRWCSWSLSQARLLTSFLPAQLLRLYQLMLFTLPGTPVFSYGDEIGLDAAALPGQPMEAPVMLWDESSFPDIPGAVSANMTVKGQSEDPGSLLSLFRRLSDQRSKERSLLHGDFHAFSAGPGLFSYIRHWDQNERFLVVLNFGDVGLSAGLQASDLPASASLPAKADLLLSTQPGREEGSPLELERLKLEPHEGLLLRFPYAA
Assay: [^14C]L-Cystine uptake assay
Type: cell-based
Design: endogenous in cells; host or cells: H4 cells
Conditions: H4 cells, sodium-free HEPES buffer, 0.5 μM L-[14C]Cystine and 4.5 μM L-Cystine, 1 hour at 37° C.; read-out: pIC50 [^14C] L-Cystine uptake assay (converted)
metric: IC50

Known results for compounds:
> print(dat)
                                   compound      test.result
1  COc1cc2c(c(F)n1)-c1cc(F)cnc1C(C)C(=O)N2CC(=O)Nc1ccc(Cl)c(F)c1 (single isomer, unassigned) [#403]        < 15.8 nM
2  Cc1cc2c(c(Cl)n1)-c1cccnc1C(C)C(=O)N2CC(=O)Nc1ccc(Br)c(F)c1 (single isomer, unassigned) [#224]        < 15.8 nM
3  Cc1cc2c(cn1)-c1cccc(Cl)c1CC(=O)N2CC(=O)Nc1ccc(C(F)(F)F)cc1 [#31]  15.8 to 39.8 nM
4  Cc1cc2c(cn1)-c1ccc(F)cc1CC(=O)N2CC(=O)Nc1ccc(C(F)(F)F)cc1 [#34]   39.8 to 100 nM
5  CC1C(=O)N(CC(=O)Nc2ccc(C(F)F)cc2)c2cc(C#N)cc(Cl)c2-c2ccnn21 (stereo not shown) [#388]  15.8 to 39.8 nM
6  Cc1cc2c(c(F)n1)-c1cccnc1[C@@H](C)C(=O)N2CC(=O)Nc1ccc2c(c1)nnn2C [#147]    100 to 501 nM

Next up:
(Q) Which IC50 is reported with system Xc^− (Homo sapiens) for this entry: Cc1cc2c(c(F)n1)-c1cccnc1[C@@H](C)C(=O)N2CC(=O)Nc1ccc2c(cnn2C(F)F)c1 [#148] ?
(A) 15.8 to 39.8 nM
